Measured GI50 by item
System: SGC-7901
assay-comment: Cytotoxicity against human SGC7901 cells after 72 hrs by MTT assay
Type: functional
measurement-conditions: SGC-7901, 72 h
State just the number; it will be interpreted in nM.

CCCCCCCCCC[C@H](O)COCCOC[C@@H](O)CCCCCCCCCCCCC1=C[C@H](C)OC1=O    65
COc1ccc(CCC[C@H](O)COCCOC[C@@H](O)CCCCC(O)CCCCCCCC2=C[C@H](C)OC2=O)cc1 (stereo partly drawn)    198
C[C@H]1C=C(CCCCCCCC(O)CCCC[C@H](O)COCCOC[C@@H](O)CCCc2cccc(O)c2)C(=O)O1 (stereo partly drawn)    1000
C[C@H]1C=C(CCCCCCCC(O)CCCC[C@H](O)COCCOC[C@@H](O)CCCc2ccc(-c3ccccc3)cc2)C(=O)O1 (stereo partly drawn)    20
COc1ccc2cc(CCC[C@H](O)COCCOC[C@@H](O)CCCCC(O)CCCCCCCC3=C[C@H](C)OC3=O)ccc2c1 (stereo partly drawn)    82

(Q) What does the record list as GI50 for CCCCCC[C@H](O)COCCOC[C@@H](O)CCCCC(O)CCCCCCCC1=C[C@H](C)OC1=O (stereo partly drawn) ?
(A) 2000

(Q) What does the record list as GI50 for C[C@H]1C=C(CCCCCCCC(O)CCCC[C@H](O)COCCOC[C@@H](O)CCCCC2CCCCC2)C(=O)O1 (stereo partly drawn) ?
(A) 750

(Q) What does the record list as GI50 for C[C@H]1C=C(CCCCCCCC(O)CCCC[C@H](O)COCCOC[C@@H](O)CCCc2ccccc2)C(=O)O1 (stereo partly drawn) ?
(A) 275

Sourced from ChEMBL document CHEMBL1649411
